Listing of recorded composite Z-score by entry.
assay: probe aXIP binding to arrayed compounds – biochemical, NeuroSMM set, 635/667 nm fluorescence, primary screen (AID 1119); settings: small-molecule microarray, higher = more signal, called active from +8 up or from −8 down;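 also: probe is the protein aXip251-270 applied at 1 µg/mL to compound-printed slides; binding of probe to printed compounds measured as 667 nm fluorescence plus signal to noise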
Lab note: jot down the number only; don't add units.

Guide cases for composite Z-score, answers given:
>  <Compound>
C=C(CCCC)/C(=C/C[C@@H](OC(=O)c1ccncc1)c1ccc(CO)o1)c1cc(C(=O)OC)ccc1OC

>  <Measured>
0.421

$$$$
>  <Compound>
COCCn1c(C(=O)N(C)C)cc2c1C[C@H]1CN(C(=O)c3ccccc3)[C@@](Cc3ccc(F)cc3)(C(=O)OC)[C@@H]21

>  <Measured>
0.916

$$$$

Retrieve composite Z-score measured for O=C1O[C@@H](c2ccccc2)[C@@H](c2ccccc2)N2[C@@H](c3ccc(O)cc3)[C@]3(C(=O)Nc4ccccc43)[C@@H](C(=O)N3CCCCCCC3)[C@H]12 and print it.
5.98

Retrieve composite Z-score measured for COCCOC(=O)N1C(=O)[C@@]2(c3cc(C#CCCO)ccc31)[C@H](c1ccc(O)cc1)N1[C@H](c3ccccc3)[C@H](c3ccccc3)OC(=O)[C@H]1[C@@H]2C(=O)N1CCCCCCC1 and print it.
1.11

Retrieve composite Z-score measured for CN(C)CCCC[C@@H]1NC(=O)[C@@H]2C[C@H](C(=O)NCCCCCN)[C@H](c3ccc(O)cc3)N2C1=O and print it.
0.351

Retrieve composite Z-score measured for O=C1C2C=CC(C(O)CCc3ccccc3)N(Nc3ccccc3)C2C(=O)N1c1ccccc1 (configuration not stated) and print it.
-0.107

Retrieve composite Z-score measured for CCCC[C@H]1C[C@@H]1[C@@H]1N(P(=O)(c2ccccc2)c2ccccc2)[C@](CO)(c2ccccc2)CC12CC2 and print it.
-0.0435

* * *

assay: probe aWnt5a binding to arrayed compounds – biochemical, biotinylated probe, 635/667 nm fluorescence, primary screen (AID 1113); conditions: small-molecule microarray, higher = more signal;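 also: score merges 667 nm fluorescence intensity with signal-to-noise per printed feature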
Rule: label 1 for composite z-score not less than -0.04, label 0 for anything less.

These recorded examples may help you get a feel for the data.
>  <Compound>
C[N+](C)(C)CCCC[C@@H]1NC(=O)[C@@H]2C[C@H](C(=O)NCCCCCCNC(=O)CS)[C@H](c3cccc(OCCO)c3)N2C1=O

>  <Label>
label 0

$$$$
>  <Compound>
O=C1OCCC/C=C\[C@H]2OC34C=CCN(Cn5nnc6ccccc65)C(=O)[C@H]3N(CCCO)C(=O)[C@@H]4C12 (stereo not given in full)

>  <Label>
label 0

$$$$
>  <Compound>
CC(C)C(=C=CC[C@H](O)c1ccccc1OCCO)CCO

>  <Label>
label 0

$$$$
>  <Compound>
O=C1O[C@@H](c2ccccc2)[C@@H](c2ccccc2)N2[C@@H](c3ccc(O)cc3)[C@]3(C(=O)Nc4ccccc43)[C@@H](C(=O)NC[C@H](O)c3ccccc3)[C@H]12

>  <Label>
label 0

$$$$
>  <Compound>
O=C1OCCC=C[C@H]2OC34C=CCN(CCN5CCOCC5)C(=O)[C@H]3N(CCO)C(=O)[C@@H]4C12 (stereo not given in full)

>  <Label>
label 0

$$$$

Would you say Cc1c(NC(=O)/C(C#N)=C/C=C/c2ccccc2)c(=O)n(-c2ccccc2)n1C shows composite z-score at minimum -0.04?
label 0

* * *

test system: Chordin-like protein 2 (CHRDL2); assay: compounds binding chordin-like 2 – biochemical, small-molecule microarray, 635 nm fluorescence, primary screen (AID 1126); settings: fluorescence 635 nm, higher = more signal;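 also: printed compound slides probed with Chrdl2 protein at 4 µg/mL for 1 h at 4 C; score merges 667 nm emission intensity with signal to noise over three replicate slides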
Rule: Satisfied for composite z-score not less than -0.9, Not satisfied for anything less.

These recorded examples may help you get a feel for the data.
>  <Sample Smiles>
COc1ccc(C#Cc2ccc3c(c2)[C@]2(C(=O)N3)[C@H](c3ccc(OCCO)cc3)N3[C@H](c4ccccc4)[C@H](c4ccccc4)OC(=O)[C@H]3[C@@H]2C(=O)Nc2nc3ccccc3s2)cc1

>  <Label>
Satisfied

$$$$
>  <Sample Smiles>
CCCNC(=O)[C@@]1(C)c2ccccc2C(=O)N(Cc2cc(C(F)(F)F)cc(C(F)(F)F)c2)[C@H]1c1ccc(CO)cc1

>  <Label>
Not satisfied

$$$$
>  <Sample Smiles>
COCCOC(=O)N1C(=O)[C@@]2(c3cc(C#CC4(O)CCCCCC4)ccc31)[C@H](c1ccc(O)cc1)N1[C@H](c3ccccc3)[C@H](c3ccccc3)OC(=O)[C@H]1[C@@H]2C(=O)N1CCc2cc(OC)c(OC)cc2C1

>  <Label>
Satisfied

$$$$
>  <Sample Smiles>
C=CC[C@]1(C(=O)O)N=C(c2ccc(OCCCO)cc2)O[C@H]1c1ccccc1CN=[N+]=[N-]

>  <Label>
Satisfied

$$$$

Would you say COCCOC(=O)N1C(=O)[C@@]2(c3cc(C#CC4=CCCCC4)ccc31)[C@H](c1ccc(OCCO)cc1)N1[C@H](c3ccccc3)[C@H](c3ccccc3)OC(=O)[C@H]1[C@@H]2C(=O)Nc1nc2ccccc2s1 shows composite z-score at minimum -0.9?
Satisfied

* * *

Listing of recorded z-score by entry.
experiment: growth of efflux-deficient E. coli DRC39 – strain DRC39, OD650, 24 h, E. coli filamentation inducers, primary screen (AID 1178);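 also: growth measured as culture turbidity by optical density at 650 nm; test concentration not given here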; conditions: E. coli DRC39 acrAB, higher = more signal, called active from +8 up or from −8 down
Lab note: jot down the number only; don't add units.

Guide cases for z-score, answers given:
>  <Molecule>
CN(C)CCCCCCNC(=O)[C@@H]1C[C@@H]2C(=O)NCC(=O)N2[C@@H]1c1cccc(OCCO)c1

>  <z-score>
0.757

$$$$
>  <Molecule>
CC[C@@H]1C=C(C(=O)O)[C@H](c2ccc(C(C)C)cc2)N1S(=O)(=O)c1ccc(C)cc1

>  <z-score>
-0.862

$$$$
>  <Molecule>
COC(=O)[C@@]1(Cc2ccccc2)[C@H]2c3cc(C(=O)N(C)C)n(Cc4cc(F)c(F)c(F)c4)c3C[C@H]2CN1C(=O)c1ccccc1

>  <z-score>
0.194

$$$$
>  <Molecule>
CCCNC(=O)[C@@]1(C)c2ccccc2C(=O)N(Cc2ccc(OC(F)(F)F)cc2)[C@H]1c1ccc(CO)cc1

>  <z-score>
0.484

$$$$

# input for lookup
Retrieve z-score measured for CC1CC/C=C\[C@H]2OC34C=CCN(CCN5CCOCC5)C(=O)[C@H]3N(CCCCCO)C(=O)[C@@H]4C2C(=O)O1 (stereo partly specified) and print it.
0.408

* * *

tested on: Human papillomavirus type 1a E7 protein (residues 1-88); experiment: HPV1a E7 small-molecule binders, primary screen, biochemical, small-molecule microarray, residues 1-88, 635 nm (AID 1129); conditions: small-molecule microarray binding, fluorescence 635 nm; higher = more signal
Rule: condition met for composite z-score not less than -0.3, condition not met for anything less.

These recorded examples may help you get a feel for the data.
>  <Molecule>
CC(C)C(CO)N1C(=O)[C@@H]2[C@H]3C(=O)OCC=C[C@H]3OC23C=CCN(c2ccc4ccccc4c2)C(=O)[C@@H]13 (stereo partly drawn)

>  <Label>
condition not met

$$$$
>  <Molecule>
Cc1c(NC(=O)/C(C#N)=C/C=C/c2ccccc2)c(=O)n(-c2ccccc2)n1C

>  <Label>
condition met

$$$$

Consider now this further molecule.
Would you say CC(C)(C)OC(=O)CC[C@@]1(C(=O)NCC(O)CO)N=C(c2ccc(OCCCO)cc2)O[C@@H]1c1ccccc1 (stereo partly drawn) shows composite z-score at minimum -0.3?
condition met

* * *

experiment: JC-1 mitochondrial potential readout, lung cancer cells – cell-based, A549, JC-1 fluorescence, basal, 24 h, 100 nL, profiling panel (AID 1138); conditions: higher = more signal;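 also: A549 lung adenocarcinoma cells under basal conditions with no added stimulus; test concentration not given here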
Observed Property: z-score
Lab note: jot down the number only; don't add units.

>  <Compound>
C=C(CCCC)/C(=C/C[C@@H](OC(=O)c1ccncc1)c1ccc(CO)o1)c1cc(C(=O)OC)ccc1OC

>  <Observed Property>
z-score

>  <Measured>
-0.108

$$$$
>  <Compound>
O=C1c2ccccc2[C@](Cc2ccccc2I)(C(=O)O)[C@H](c2ccc(CO)cc2)N1Cc1ccccc1C(F)(F)F

>  <Observed Property>
z-score

>  <Measured>
-0.635

$$$$
>  <Compound>
COc1ccc(C#Cc2ccc3c(c2)[C@]2(C(=O)N3)[C@H](C(=O)N3CCc4cc(OC)c(OC)cc4C3)[C@H]3C(=O)O[C@H](c4ccccc4)[C@H](c4ccccc4)N3[C@@H]2c2ccc(OCCO)cc2)cc1

>  <Observed Property>
z-score

>  <Measured>
-1.09

$$$$
>  <Compound>
[N-]=[N+]=Nc1ccccc1C[C@]1(C(=O)N2CCCCC2)N=C(c2ccc(OCCCO)cc2)O[C@H]1c1ccccc1N=[N+]=[N-]

>  <Observed Property>
z-score

>  <Measured>
0.591

$$$$
>  <Compound>
COc1ccc(CCNC(=O)[C@@]2(C)c3ccccc3C(=O)N(Cc3ccccc3)[C@H]2c2ccc(CO)cc2)cc1

>  <Observed Property>
z-score

>  <Measured>
-1.72

$$$$
>  <Compound>
COc1ccc(C(O)C2C=CC3C(=O)N(c4ccccc4)C(=O)C3N2Nc2ccccc2)c2ccccc12 (configuration not stated)

>  <Observed Property>
z-score

>  <Measured>
-0.284

$$$$

# input for lookup
Retrieve z-score measured for Cc1ccc(S[C@]2(C(=O)NCc3ccccc3)CC(=O)N(Cc3cc(C(F)(F)F)cc(C(F)(F)F)c3)[C@@H]2c2ccc(CO)cc2)cc1 and print it.
-0.0446
